Measured values drawn from ChEMBL document CHEMBL4041542 for this set.

# System: CHO
# procedure-text: Cytotoxicity against CHO cells
# Type: cell-based
# run-parameters: Cricetulus griseus
Recorded pIC50, one value per entry.
Please note pIC50 is a logarithmic value: minus log10 of concentration in mol/L. Answer with that number alone.

Sample records with pIC50:
compound-structure	pIC50
CC(=O)O[C@H]1C[C@@]2(C)[C@@H](C[C@@H](O)[C@H]3[C@@]4(C)CC[C@@H](O)[C@@H](C)[C@@H]4CC[C@@]32C)/C1=C(\CCC=C(C)C)C(=O)Oc1ccc(F)cc1	4.10
CC(=O)O[C@H]1C[C@@]2(C)[C@@H](C[C@@H](O)[C@H]3[C@@]4(C)CC[C@@H](O)[C@@H](C)[C@@H]4CC[C@@]32C)/C1=C(\CCC=C(C)C)C(=O)Oc1cc(Cl)cc(Cl)c1	4.09
CC(=O)O[C@H]1C[C@@]2(C)[C@@H](C[C@@H](O)[C@H]3[C@@]4(C)CC[C@@H](O)[C@@H](C)[C@@H]4CC[C@@]32C)/C1=C(\CCC=C(C)C)C(=O)Oc1cccc(F)c1	4.05

# evaluate next
For `CC(=O)O[C@H]1C[C@@]2(C)[C@@H](C[C@@H](O)[C@H]3[C@@]4(C)CC[C@@H](O)[C@@H](C)[C@@H]4CC[C@@]32C)/C1=C(\CCC=C(C)C)C(=O)Oc1cc(F)cc(F)c1` , write its pIC50.
4.01
